# target: T1, monkey GFRα3 expressed with a C-terminal myc-myc-hexahistidine tag (monkey (Mf), UniProt O60609 32-374 (human entry), limits assumed)
# T1 construct: also called MfGFRα3-mmh; MfGFRα3-mmH
# T1 chain: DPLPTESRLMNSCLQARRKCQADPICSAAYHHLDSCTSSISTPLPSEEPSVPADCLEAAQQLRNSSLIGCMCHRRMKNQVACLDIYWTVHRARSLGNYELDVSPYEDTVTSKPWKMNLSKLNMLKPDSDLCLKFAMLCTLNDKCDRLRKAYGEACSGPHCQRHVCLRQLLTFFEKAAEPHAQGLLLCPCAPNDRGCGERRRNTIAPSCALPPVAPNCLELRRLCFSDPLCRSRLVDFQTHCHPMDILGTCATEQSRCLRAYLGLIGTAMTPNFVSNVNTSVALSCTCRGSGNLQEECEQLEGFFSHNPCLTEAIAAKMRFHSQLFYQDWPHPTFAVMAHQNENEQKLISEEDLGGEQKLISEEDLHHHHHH
# testMethodNotes: SPR, Ab captured, 37C
assayEndpoint: kon (M⁻¹ s⁻¹)
Unit M⁻¹ s⁻¹ implied. Number only.

| binder | resultUnits | kon |
| --- | --- | --- |
| H4H2364S (antibody, human IgG4, V domains shown, human IgG4 Fc (H4H)) VH: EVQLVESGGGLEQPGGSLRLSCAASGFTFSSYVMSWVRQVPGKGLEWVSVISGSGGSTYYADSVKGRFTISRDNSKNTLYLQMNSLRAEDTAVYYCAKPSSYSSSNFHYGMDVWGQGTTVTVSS VL: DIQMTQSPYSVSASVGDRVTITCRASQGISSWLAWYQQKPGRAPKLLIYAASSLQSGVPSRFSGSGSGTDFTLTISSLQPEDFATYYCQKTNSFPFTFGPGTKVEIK | M⁻¹ s⁻¹ | 168000 |

Lab note: measured kon of H4H2295S (antibody, human IgG4, V domains shown, human IgG4 Fc (H4H)) VH: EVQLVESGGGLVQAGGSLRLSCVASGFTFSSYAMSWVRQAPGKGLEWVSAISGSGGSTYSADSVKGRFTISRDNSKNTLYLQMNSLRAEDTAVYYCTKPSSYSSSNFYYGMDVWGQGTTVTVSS VL: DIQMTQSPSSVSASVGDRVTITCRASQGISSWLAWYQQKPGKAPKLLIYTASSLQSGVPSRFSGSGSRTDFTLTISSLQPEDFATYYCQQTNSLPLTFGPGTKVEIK was 276000
